# System: HL-1
# PROCEDURE SUMMARY: relative cell viability (CellTiter-Glo) vs DMSO control (% of DMSO control); higher = more viable cells
# CONDITION CONTEXT: oxygen condition: hypoxia 48 h (1% O2) + reoxygenation 24 h; 40 nM
Counter-ions that a name gives are not always drawn.
OUTCOME MEASURE: relative cell viability
The answer should be a number; do not append a unit.

Query: Would you kindly share the measured relative cell viability for CCN(C)C(=O)Oc1cccc([C@H](C)N(C)C)c1 [Rivastigmine tartrate] ?
Result: 105

Query: Try this compound too: C[C@@H]1O[C@@H](O[C@H]2C[C@@H](O)[C@]3(CO)[C@H]4[C@H](O)C[C@]5(C)[C@@H](C6=CC(=O)OC6)CC[C@]5(O)[C@@H]4CC[C@]3(O)C2)[C@H](O)[C@H](O)[C@H]1O
Result: 101

Query: // next record O=C(O[C@H]1C[N+]2(CCCOc3ccccc3)CCC1CC2)C(O)(c1cccs1)c1cccs1 [Aclidinium Bromide]
Result: 104

Query: Ok, now O=c1[nH]c2ccccc2n1CCCN1CCC(n2c(=O)[nH]c3cc(Cl)ccc32)CC1
Result: 104

Query: What do we get for Cc1cccc([C@H](C)c2c[nH]cn2)c1C [Dexmedetomidine HCl] ?
Result: 111

Query: And for CN(C)C(=O)Oc1ccc[n+](C)c1 [Pyridostigmine Bromide] ?
Result: 98.7

Query: Cool, now C=CC[C@]1(O)CC[C@H]2[C@@H]3CCC4=CC(=O)CCC4=C3C=C[C@@]21C
Result: 105

Query: Check C[N+](C)(C)CCCCCCCCCC[N+](C)(C)C [Decamethonium bromide] too.
Result: 106

Query: Another: C[C@]12C/C(=C/O)C(=O)C[C@@H]1CC[C@@H]1[C@@H]2CC[C@@]2(C)[C@H]1CC[C@]2(C)O
Result: 104

Query: // next record CN1[C@@H]2CC(O)C[C@H]1[C@@H]1O[C@@H]12 (stereo partly drawn)
Result: 98.4

Query: Next up: CCC1(c2cccc(O)c2)CCCCN(C)C1 (stereo not drawn) [Meptazinol HCl]
Result: 97.8

Query: Moving on to the next compound: OC(c1ccccc1)(c1ccccc1)C1CCNCC1
Result: 104

Query: Thanks! And CCOC(=O)c1cncn1[C@H](C)c1ccccc1 [Etomidate] ?
Result: 101

Query: Likewise for CCC1(c2ccc(N)cc2)CCC(=O)NC1=O (stereo not drawn) [Aminoglutethimide] ?
Result: 104

Query: Again, but for CNCC(=O)c1ccc(O)c(O)c1 [Adrenalone HCl]
Result: 97.4

Query: Now give it for Cc1cccc(Cc2c[nH]cn2)c1C [Detomidine HCl] too.
Result: 100

Query: Field entry: C#C[C@]1(O)C=C[C@H]2[C@@H]3CCC4=CC(=O)CC[C@@H]4[C@H]3CC[C@@]21CC
Result: 102

Query: Next entry: CCCN1C[C@H](CSC)C[C@@H]2c3cccc4[nH]cc(c34)C[C@H]21 [Pergolide mesylate]
Result: 103

###

# Test system: HL-1
# PROCEDURE SUMMARY: relative cell viability (CellTiter-Glo) vs DMSO control (% of DMSO control); higher = more viable cells
# CONDITION CONTEXT: oxygen condition: hypoxia 48 h (1% O2) + reoxygenation 24 h; 5000 nM
Where a name gives a salt, the structure may show the parent alone.
Field: relative cell viability. Provide a value for each of the compounds that follow.
Output spec: single numeric token, no unit.

Query: Which value of relative cell viability has been reported for C[C@]12CC[C@H](O)CC1=CC[C@@H]1[C@@H]2CC[C@]2(C)C(=O)CC[C@@H]12 [Dehydroepiandrosterone] in the records?
Result: 111

Query: Let us now turn to Cc1cccc([C@H](C)c2c[nH]cn2)c1C [Dexmedetomidine HCl]
Result: 89.4

Query: What do we get for Cc1cccc(Cc2c[nH]cn2)c1C [Detomidine HCl] ?
Result: 103

Query: Same read-out for COc1ccc(C(CN(C)C)C2(O)CCCCC2)cc1 (centres undefined) ?
Result: 102
